# Tested on: J82 bladder carcinoma cells
# Experiment Notes: Antiproliferative assay (MTT reduction), J82 bladder carcinoma cells
# Type: cell-based, human
# Condition Summary: Homo sapiens, 72 h; J82 bladder carcinoma; 3 days treatment, MTT reduction; mean ± SD; >100 µM considered inactive
Attribute: pIC50
Note on pIC50: it is the negative log10 of concentration, concentration in mol/L.

C=C1CCC2[C@](C)(CCC[C@]2(C)C(=O)O)[C@H]1CC[C@@H](C)CC(=O)OCCc1cn(CC[C@H](C)CC[C@H]2C(=C)CCC3[C@]2(C)CCC[C@]3(C)C(=O)OC)nn1 (some centres unmarked)
4.46

input: Using the record for C=C1CCC2[C@](C)(CCC[C@]2(C)C(=O)OC)[C@H]1CC[C@@H](C)CCOC(=O)C[C@H](C)CC[C@H]1C(=C)CCC2[C@]1(C)CCC[C@]2(C)C(=O)OC (some centres unmarked) , report its pIC50.
output: 4.21

* * *

# System: MRC-5 normal fibroblasts
# Experiment Notes: Antiproliferative assay (MTT reduction), MRC-5 normal lung fibroblasts
# Type: cell-based, human
# Condition Summary: Homo sapiens, MRC5, 72 h; MRC-5 normal fibroblasts; 3 days treatment, MTT reduction; mean ± SD; >100 µM considered inactive
pIC50: −log10 of the molar value.
Recorded Endpoint: pIC50

Known results for compounds:
C=C1CCC2[C@](C)(CCC[C@]2(C)C(=O)O)[C@H]1CC[C@@H](C)CC(=O)OCc1cn(CC[C@H](C)CC[C@H]2C(=C)CCC3[C@]2(C)CCC[C@]3(C)C(=O)OC)nn1 (stereo partly drawn)
< 4.00
C=C1CCC2[C@](C)(CCC[C@]2(C)C(=O)OC)[C@H]1CC[C@@H](C)CCOCCCCOCC[C@H](C)CC[C@H]1C(=C)CCC2[C@]1(C)CCC[C@]2(C)C(=O)OC (stereo partly drawn)
< 4.00
C=C1CCC2[C@](C)(CCC[C@]2(C)C(=O)OC)[C@H]1CC[C@@H](C)CCn1cc(CCO)nn1 (stereo partly drawn)
4.12

input: Using the record for C=C1CCC2[C@](C)(CCC[C@]2(C)C(=O)OC)[C@H]1CC[C@@H](C)CCn1cc(CCOC(=O)C[C@H](C)CC[C@H]2C(=C)CCC3[C@]2(C)CCC[C@]3(C)C(=O)OC)nn1 (stereo partly drawn) , report its pIC50.
output: < 4.00

input: Using the record for C=C1CCC2[C@](C)(CCC[C@]2(C)C(=O)O)[C@H]1CC[C@@H](C)CCOC(=O)CCc1cn(CC[C@H](C)CC[C@H]2C(=C)CCC3[C@]2(C)CCC[C@]3(C)C(=O)OC)nn1 (stereo partly drawn) , report its pIC50.
output: < 4.00

input: Using the record for C=C1CCC2[C@](C)(CCC[C@]2(C)C(=O)OC)[C@H]1CC[C@@H](C)CCn1cc(CCC(=O)O)nn1 (stereo partly drawn) , report its pIC50.
output: < 4.00

* * *

# System: HL-60 cells
# Experiment Notes: Antiproliferative assay (MTT reduction), HL-60 promyelocytic leukemia cells
# Assay type: cell-based, human
# Condition Summary: Homo sapiens, 72 h; HL-60 promyelocytic leukemia; 3 days treatment, MTT reduction; mean ± SD; >100 µM considered inactive
Recorded Endpoint: IC50

C=C1CCC2[C@](C)(CCC[C@]2(C)C(=O)O)[C@H]1CC[C@@H](C)CC(=O)OCC[C@H](C)CC[C@H]1C(=C)CCC2[C@]1(C)CCC[C@]2(C)C(=O)OC (stereo partly drawn)
80.3 µM
C=C1CCC2[C@](C)(CCC[C@]2(C)C(=O)O)[C@H]1CC[C@@H](C)CC(=O)OCCc1cn(CC[C@H](C)CC[C@H]2C(=C)CCC3[C@]2(C)CCC[C@]3(C)C(=O)OC)nn1 (stereo partly drawn)
23.2 µM
C=C1CCC2[C@](C)(CCC[C@]2(C)C(=O)OC)[C@H]1CC[C@@H](C)CCn1cc(CCC(=O)O)nn1 (stereo partly drawn)
> 100 µM

input: Request body: readout IC50, system HL-60 cells, query C=C1CCC2[C@](C)(CCC[C@]2(C)C(=O)OC)[C@H]1CC[C@@H](C)CCOCCCCCCCCCOCC[C@H](C)CC[C@H]1C(=C)CCC2[C@]1(C)CCC[C@]2(C)C(=O)OC (stereo partly drawn) . Return the value.
output: > 100 µM

input: Request body: readout IC50, system HL-60 cells, query C=C1CCC2[C@](C)(CCC[C@]2(C)C(=O)OC)[C@H]1CC[C@@H](C)CCn1cc(CO)nn1 (stereo partly drawn) . Return the value.
output: > 100 µM

input: Request body: readout IC50, system HL-60 cells, query C=C1CCC2[C@](C)(CCC[C@]2(C)C(=O)OC)[C@H]1CC[C@@H](C)CCn1cc(COC(=O)C[C@H](C)CC[C@H]2C(=C)CCC3[C@]2(C)CCC[C@]3(C)C(=O)OC)nn1 (stereo partly drawn) . Return the value.
output: > 100 µM

* * *

Attribute: pIC50
# System: J82 bladder carcinoma cells
# Experiment Notes: Antiproliferative assay (MTT reduction), J82 bladder carcinoma cells
# Type: cell-based, human
# Condition Summary: Homo sapiens, 72 h; J82 bladder carcinoma; 3 days treatment, MTT reduction; mean ± SD; >100 µM considered inactive
Note on pIC50: it is the negative log10 of concentration, concentration in mol/L.

C=C1CCC2[C@](C)(CCC[C@]2(C)C(=O)OC)[C@H]1CC[C@@H](C)CCO (stereo partly drawn) [Compound 1, 15-Hydroxyimbricatolic acid methyl ester]
4.20

// next item, pIC50 requested
input: Using the record for C=C1CCC2[C@](C)(CCC[C@]2(C)C(=O)O)[C@H]1CC[C@@H](C)CC(=O)OCc1cn(CC[C@H](C)CC[C@H]2C(=C)CCC3[C@]2(C)CCC[C@]3(C)C(=O)OC)nn1 (stereo partly drawn) [Compound 15] , report its pIC50.
output: 4.07

* * *

# Tested on: MRC-5 normal fibroblasts
# Experiment Notes: Antiproliferative assay (MTT reduction), MRC-5 normal lung fibroblasts
# Format: cell-based, human
# Condition Summary: Homo sapiens, MRC5, 72 h; MRC-5 normal fibroblasts; 3 days treatment, MTT reduction; mean ± SD; >100 µM considered inactive
Recorded Endpoint: IC50

Known results for compounds:
C=C1CCC2[C@](C)(CCC[C@]2(C)C(=O)OC)[C@H]1CC[C@@H](C)CCOC(=O)C[C@H](C)CC[C@H]1C(=C)CCC2[C@]1(C)CCC[C@]2(C)C(=O)OC (stereo partly drawn)
> 100 µM
C=C1CCC2[C@](C)(CCC[C@]2(C)C(=O)O)[C@H]1CC[C@@H](C)CC(=O)O (stereo partly drawn)
> 100 µM

input: Request body: readout IC50, system MRC-5 normal fibroblasts, query C=C1CCC2[C@](C)(CCC[C@]2(C)C(=O)OC)[C@H]1CC[C@@H](C)CCn1cc(COC(=O)C[C@H](C)CC[C@H]2C(=C)CCC3[C@]2(C)CCC[C@]3(C)C(=O)OC)nn1 (stereo partly drawn) . Return the value.
output: > 100 µM

input: Request body: readout IC50, system MRC-5 normal fibroblasts, query C=C1CCC2[C@](C)(CCC[C@]2(C)C(=O)OC)[C@H]1CC[C@@H](C)CCn1cc(CO)nn1 (stereo partly drawn) . Return the value.
output: 77.4 µM

input: Request body: readout IC50, system MRC-5 normal fibroblasts, query C=C1CCC2[C@](C)(CCC[C@]2(C)C(=O)OC)[C@H]1CC[C@@H](C)CCOCC[C@H](C)CC[C@H]1C(=C)CCC2[C@]1(C)CCC[C@]2(C)C(=O)OC (stereo partly drawn) . Return the value.
output: > 100 µM

input: Request body: readout IC50, system MRC-5 normal fibroblasts, query C=C1CCC2[C@](C)(CCC[C@]2(C)C(=O)OC)[C@H]1CC[C@@H](C)CCn1cc(CCC(=O)OCC[C@H](C)CC[C@H]2C(=C)CCC3[C@]2(C)CCC[C@]3(C)C(=O)OC)nn1 (stereo partly drawn) . Return the value.
output: > 100 µM

* * *

# Tested on: J82 bladder carcinoma cells
# Experiment Notes: Antiproliferative assay (MTT reduction), J82 bladder carcinoma cells
# Format: cell-based, human
# Condition Summary: Homo sapiens, 72 h; J82 bladder carcinoma; 3 days treatment, MTT reduction; mean ± SD; >100 µM considered inactive
Recorded Endpoint: IC50

C=C1CCC2[C@](C)(CCC[C@]2(C)C(=O)O)[C@H]1CC[C@@H](C)CCOC(=O)CCc1cn(CC[C@H](C)CC[C@H]2C(=C)CCC3[C@]2(C)CCC[C@]3(C)C(=O)OC)nn1 (stereo partly drawn)
> 100 µM

input: Using the record for C=C1CCC2[C@](C)(CCC[C@]2(C)C(=O)OC)[C@H]1CC[C@@H](C)CCN=[N+]=[N-] (stereo partly drawn) , report its IC50.
output: > 100 µM

input: Using the record for C=C1CCC2[C@](C)(CCC[C@]2(C)C(=O)OC)[C@H]1CC[C@@H](C)CCn1cc(CCC(=O)O)nn1 (stereo partly drawn) , report its IC50.
output: > 100 µM

Cited source for all entries: paper PMC6270601
